Molecular target: human Yes1 enzyme (Homo sapiens, UniProt P07947)
Construct: made in house
Sequence (P07947 whole entry): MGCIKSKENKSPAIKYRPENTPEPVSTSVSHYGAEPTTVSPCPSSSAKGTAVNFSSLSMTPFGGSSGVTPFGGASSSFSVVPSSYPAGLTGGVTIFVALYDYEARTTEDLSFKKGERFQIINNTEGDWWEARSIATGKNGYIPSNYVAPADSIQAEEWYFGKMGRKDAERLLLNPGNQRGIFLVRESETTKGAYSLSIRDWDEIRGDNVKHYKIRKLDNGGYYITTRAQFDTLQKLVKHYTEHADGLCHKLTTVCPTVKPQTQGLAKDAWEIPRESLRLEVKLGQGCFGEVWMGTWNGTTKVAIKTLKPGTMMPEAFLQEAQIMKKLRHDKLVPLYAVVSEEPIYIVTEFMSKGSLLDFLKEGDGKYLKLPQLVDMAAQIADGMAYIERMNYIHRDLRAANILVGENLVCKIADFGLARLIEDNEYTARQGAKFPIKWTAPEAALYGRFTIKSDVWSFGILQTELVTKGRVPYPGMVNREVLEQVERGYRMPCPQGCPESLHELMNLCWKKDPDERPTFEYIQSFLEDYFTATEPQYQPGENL
Test: Yes1 enzyme inhibitory activity (time-resolved fluorometry, biotinylated peptide phosphorylation)
Assay type: biochemical
Conditions: biotinylated peptide phosphorylation, read-out: YES_IC50
pIC50: −log10 of the molar value.
Listing: pIC50 of selected compounds
Quantity kind: pIC50

>>> val("CC(=O)N1CCC(c2cc3[nH]c(C(=O)c4cnn(-c5cnc(Oc6c(F)cccc6F)cc5C)c4N)cc3cc2OC(F)F)CC1")
7.89
>>> val("Cc1cc(Oc2ccccc2F)ncc1-n1ncc(C(=O)c2cc3cc(F)c(NS(=O)(=O)c4cccc(F)c4)cc3[nH]2)c1N")
7.89
>>> val("Cc1cc(Oc2ccccc2Cl)ncc1-n1ncc(C(=O)c2cc3cc(F)c(NS(=O)(=O)CCCF)cc3[nH]2)c1N")
8.77
>>> val("Cc1cc2cc(C(=O)c3cnn(-c4ccc(Oc5ccccc5F)cc4C)c3N)[nH]c2cc1NS(=O)(=O)c1cccc(C#N)n1")
8.39
>>> val("Cc1cc(Oc2ccccc2F)ccc1-n1ncc(C(=O)c2cc3cc(C4CCN(C(C)C)CC4)c(F)cc3[nH]2)c1N")
9.00
>>> val("Cc1cc2cc(C(=O)c3cnn(-c4cnc(Oc5c(F)cccc5F)cc4C)c3N)[nH]c2cc1NS(=O)(=O)CC(=O)N1CCOCC1")
8.89
